Assay remarks: qHTS assay to identify aromatase inhibitors - cell viability counter screen (AID 743084);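 further: cells stimulated with testosterone during compound exposure; nearly all actives have a fitted effect of over 55% in size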
Experimental setup: MCF-7 aro ERE viability, CellTiter-Fluor, 24 h; series mostly up to 70.3 µM
Results filed as inconclusive are left out. Activity calls are given as the source filed them. The call rests on the fitted dose curve; in most records, active means well fitted cell-killing curve with a large enough effect in the repeat runs; inconclusive means weak or mixed curves, or effect the other way; inactive means no such curve, though single readings can be large or run the other way.

{"Molecule": "CCc1cccc(N(C)C(N)=Nc2cccc3ccccc23)c1", "outcome": "inactive"}
{"Molecule": "NC(=O)N(O)[C@@H]1C=C[C@H](Oc2cccc(Oc3ccc(F)cc3)c2)C1", "outcome": "inactive"}
{"Molecule": "Oc1cc(O)c(Cl)cc1Cl", "outcome": "inactive"}
{"Molecule": "CC(=O)Oc1ccc(C(=C2CCCCC2)c2ccc(OC(C)=O)cc2)cc1", "outcome": "inactive"}
{"Molecule": "CC(C)OCC1CO1 (stereo not drawn)", "outcome": "inactive"}
{"Molecule": "CCCCCCCC/C=C\\CCCCCCCC(=O)OC(CO)CO", "outcome": "inactive"}
{"Molecule": "CCC(=O)Oc1ccc(/C(CC)=C(\\CC)c2ccc(OC(=O)CC)cc2)cc1", "outcome": "inactive"}
{"Molecule": "CCC(C)(O)CCC=C(C)C (stereo not drawn)", "outcome": "inactive"}
{"Molecule": "CCCCOC(=O)CCS", "outcome": "inactive"}
{"Molecule": "NCC1CCCC(CN)C1 (stereo not drawn)", "outcome": "inactive"}
{"Molecule": "CN1C(=O)CC(C)(c2ccccc2)C1=O (stereo not drawn)", "outcome": "inactive"}
{"Molecule": "NC(=O)Nc1ccc(Cl)cc1", "outcome": "inactive"}
{"Molecule": "CCn1cc(C(=O)O)c(=O)c2cc(F)c(N3CCNCC3)nc21", "outcome": "inactive"}

====

Assay remarks: qHTS assay for small molecule activators of the heat shock response signaling pathway - cell viability counter screen (AID 743209); further: nearly all actives have a fitted effect of over 50% in size
Experimental setup: HSE-bla HeLa viability, CellTiter-Glo luminescence, 5 h; series mostly up to 62.6 µM
Results filed as inconclusive are left out. Activity calls are given as the source filed them. Calls follow the shape of the dose curve; as a rule, active = well fitted cell-killing curve with a large enough effect in the repeat runs; inconclusive = weak or mixed curves, or effect the other way; inactive = no such curve, though single readings can be large or run the other way.

{"Smiles input": "Cc1oncc1C(=O)Nc1ccc(C(F)(F)F)cc1", "outcome": "inactive"}
{"Smiles input": "C[C@@H]1C[C@H]2[C@@H]3CCC4=CC(=O)C=C[C@]4(C)[C@@]3(F)[C@@H](O)C[C@]2(C)[C@H]1C(=O)CO", "outcome": "inactive"}
{"Smiles input": "CCOC(=O)/C=C/C(=O)O", "outcome": "inactive"}
{"Smiles input": "O=C1NCCN1", "outcome": "inactive"}
{"Smiles input": "Nc1c(I)cc(I)c(C(=O)N(CCC(=O)O)c2ccccc2)c1I", "outcome": "inactive"}
{"Smiles input": "Cc1cc(C(=C2C=CC(=Nc3ccc(S(=O)(=O)O)cc3S(=O)(=O)O)C=C2)c2ccc(Nc3ccc(S(=O)(=O)O)cc3)cc2)ccc1N", "outcome": "inactive"}

====

Assay remarks: qHTS RealTime-Glo MT Cell Viability Assay in HEK293 cells - 24 hour (AID 1224886); further: nearly all actives have a fitted effect of over 50% in size
Experimental setup: RealTime-Glo luminescence; series mostly up to 76.8 µM
Results filed as inconclusive are left out. Active and inactive are the calls of the source. Calls follow the shape of the dose curve; as a rule, active = well fitted cell-killing curve with a large enough effect in the repeat runs; inconclusive = weak or mixed curves, or effect the other way; inactive = flat fitted curve, though single readings scatter.
Labels: active, inactive

{"Compound": "C[N+]1(C)CCC(=C(c2ccccc2)c2ccccc2)CC1", "Class": "inactive"}
{"Compound": "COc1cc2c(N3CCN(C(=O)Nc4ccc(OC(C)C)cc4)CC3)ncnc2cc1OCCCN1CCCCC1", "Class": "active"}
{"Compound": "C[C@@H]1C[C@H]2[C@@H]3CCC4=CC(=O)C=C[C@]4(C)[C@@]3(F)[C@@H](O)C[C@]2(C)[C@H]1C(=O)CO", "Class": "inactive"}
{"Compound": "CC1(C)C(=O)N(Br)C(=O)N1Cl", "Class": "inactive"}
{"Compound": "O=S(=O)(c1ccccc1)c1ccc(Cl)cc1", "Class": "inactive"}
{"Compound": "Cc1occc1C(=O)Nc1ccc(C(=O)N2CCC(F)(F)/C(=C\\C(=O)N3CCC(N4CCCCC4)CC3)c3ccccc32)cc1", "Class": "active"}
{"Compound": "CC(C)C(=O)O", "Class": "inactive"}
{"Compound": "CCCCCCCCSCCO", "Class": "inactive"}
{"Compound": "COC(=O)[C@@H]1CC2=CC(=O)CC[C@]2(C)[C@@]23O[C@@H]2C[C@@]2(C)[C@@H](CC[C@@]24CCC(=O)O4)[C@H]13", "Class": "inactive"}
{"Compound": "CO[C@H]1C=CO[C@@]2(C)Oc3c(C)c(O)c4c(O)c(c5c(c4c3C2=O)=NC2(CCN(CC(C)C)CC2)N=5)NC(=O)/C(C)=C\\C=C/[C@H](C)[C@H](O)[C@@H](C)[C@@H](O)[C@@H](C)[C@H](OC(C)=O)[C@@H]1C", "Class": "active"}
{"Compound": "O=C(O)c1ccccc1NCCc1ccccc1", "Class": "inactive"}
{"Compound": "CCn1nc(C)c2c1C(=O)NCC(c1ccc(O)cc1)=N2", "Class": "inactive"}
{"Compound": "CC(C)CCCC(=O)O", "Class": "inactive"}
{"Compound": "CCCCC(=O)O[C@]1(C(=O)CO)CC[C@H]2[C@@H]3CCC4=CC(=O)CC[C@]4(C)[C@H]3[C@@H](O)C[C@@]21C", "Class": "inactive"}
{"Compound": "C/C(=N/NC(=O)c1ccncc1)C(=O)O", "Class": "inactive"}
{"Compound": "CC(=O)Nc1ccccc1C", "Class": "inactive"}
{"Compound": "Cc1ccccc1N1C(=O)c2cc(S(N)(=O)=O)c(Cl)cc2NC1C (stereo unspecified)", "Class": "inactive"}
{"Compound": "CCN(CC)CCNC(=O)c1ccc(NC(C)=O)cc1", "Class": "inactive"}
{"Compound": "COc1ccccc1N=Nc1c(S(=O)(=O)O)cc2cc(S(=O)(=O)O)cc(NC(C)=O)c2c1O", "Class": "inactive"}
{"Compound": "CC(CCO)CCc1ccccc1 (stereo unspecified)", "Class": "inactive"}
{"Compound": "CCCCCCOC(=O)CCCCCCCC(=O)OCCCCCC", "Class": "inactive"}
